Test system: P388 leukemia ip, CD2F1 mice, survival T/C
Experiment: NCI In Vivo Anticancer Drug Screen. Data for tumor model P388 Leukemia (intraperitoneal) in CD2F1 (CDF1) mice
Conditions: endpoint: median survival time; dose: 30.0 mg/kg/injection; schedule: Q01DX005 (ip); vehicle: Klucel (hydroxypropylcellulose) (HPC); higher = longer survival
Toxic doses and inconclusive results are not listed.
observable: T/C

• CC1(C)CCC2(C(=O)O)CCC3(C)C(=CCC4C5(C)CCC(OC6OC(CO)C(O)C(OC7OC(CO)C(O)C(O)C7O)C6OC6OC(CO)C(O)C(O)C6O)C(C)(C)C5CCC43C)C2C1 (stereo not drawn) = 100 % of control
• O=C1CC2C(C1Nc1ccccc1)C1C(=Nc3ccccc3)C(Nc3ccccc3)=CC1N2c1ccccc1 (stereo not drawn) = 95 % of control
• CCOC(=O)/C=C1\SC(C)(C)C1NC(=O)OCc1ccccc1 (stereo not drawn) = 103 % of control
• Nc1nc(N)c2nc(SCc3ccc(Cl)cc3)c(N)nc2n1 = 88 % of control
• O=C1C2=C(Nc3cc([N+](=O)[O-])ccc3N2)OC1c1ccccn1 (stereo not drawn) = 119 % of control
• FC(F)(F)c1nc(SCc2ccc(Cl)cc2)n[nH]1 = 103 % of control
• NC1=C(O)C(=O)C(c2cccnc2)O1 (stereo not drawn) = 102 % of control
• CC1(C)N=C(N)N=C(N)N1c1cccc(CNc2ccc(S(N)(=O)=O)cc2)c1 = 102 % of control
